Tested on: Human alphaherpesvirus 2
Method notes: Antiviral activity against HSV-2
Assay type: functional, organism-based
pIC50: −log10 of the molar value.
Reported metric: pIC50

Some solved cases for reference:
Compound | pIC50
Cc1nc(N(C)C(=O)C2Cc3ccc(-c4cc(F)ccc4F)cc3C2)sc1S(C)(=N)=O (stereo in doubt; 2a) | 4.60
Cc1nc(N(C)C(=O)C2Cc3ccc(-c4cc(F)ccc4F)cc3C2)sc1S(C)(=N)=O (stereo in doubt; 2b) | 5.90

a = Cc1nc(N(C)C(=O)C2Cc3ccc(-c4cc(F)ccc4F)cc3C2)sc1S(C)(=N)=O (stereo in doubt; 2d)
b = Cc1nc(N(C)C(=O)C2Cc3ccc(-c4cc(F)ccc4F)cc3C2)sc1S(C)(=N)=O (stereo in doubt; 2c)
Query: Of a and b , which shows the smaller pIC50 value? Select an item and report its label.
Result: a
(a: 4.30, b: 5.70)

====

System: Human alphaherpesvirus 1
Method notes: Antiviral activity against HSV-1 by CPE assay
Format: functional, organism-based
pIC50: −log10 of the molar value.
Reported metric: pIC50

Some solved cases for reference:
Compound | Reported metric | Measured
Cc1nc(N(C)C(=O)C2Cc3ccc(-c4cc(F)ccc4F)cc3C2)sc1S(C)(=N)=O (stereo in doubt; 2a) | pIC50 | 4.60
Cc1nc(N(C)C(=O)C2Cc3ccc(-c4cc(F)ccc4F)cc3C2)sc1S(C)(=N)=O (stereo in doubt; 2c) | pIC50 | 6.40

I = Cc1nc(N(C)C(=O)C2Cc3ccc(-c4cc(F)ccc4F)cc3C2)sc1S(C)(=N)=O (stereo in doubt; 2d)
II = Cc1nc(N(C)C(=O)C2Cc3ccc(-c4cc(F)ccc4F)cc3C2)sc1S(C)(=N)=O (stereo in doubt; 2b)
Query: Of I and II , which shows the smaller pIC50 value? Select an item and report its label.
Result: I

====

Test system: Human alphaherpesvirus 1
Method notes: Antiviral activity against HSV-1
Type: functional, organism-based
pIC50: −log10 of the molar value.
Reported metric: pIC50

Compound | Measured
Cc1nc(N(C)C(=O)Cc2ccc(-c3cc(F)ccc3F)cc2)sc1S(C)(=N)=O (configuration not stated) | 7.72
Cc1nc(N(C)C(=O)Cc2ccc(-c3ccccn3)cc2)sc1S(N)(=O)=O [PRITELIVIR] | 7.70
